Target: T1, hPD-L1-hFc (human)
T1 construct: it may hold a signal peptide ('open reading frame of the extracellular domain'); also called PD-L1-hFc protein; human PD-L1 extracellular domain fused with human Fc tag
T1 sequence (chain, as listed by the source limits assumed): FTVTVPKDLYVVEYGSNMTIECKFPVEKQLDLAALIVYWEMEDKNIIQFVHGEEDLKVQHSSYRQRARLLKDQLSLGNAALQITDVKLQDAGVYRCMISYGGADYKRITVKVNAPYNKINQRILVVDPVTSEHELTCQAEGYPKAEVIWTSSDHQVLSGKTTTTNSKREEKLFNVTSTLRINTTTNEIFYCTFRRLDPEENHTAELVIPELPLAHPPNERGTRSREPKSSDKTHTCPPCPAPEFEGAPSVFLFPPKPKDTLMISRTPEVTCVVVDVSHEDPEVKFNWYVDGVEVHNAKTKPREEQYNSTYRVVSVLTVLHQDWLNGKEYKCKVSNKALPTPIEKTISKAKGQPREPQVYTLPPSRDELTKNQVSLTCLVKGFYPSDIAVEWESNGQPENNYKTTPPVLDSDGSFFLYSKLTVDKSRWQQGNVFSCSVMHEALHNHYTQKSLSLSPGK
Assay: ELISA, coated PD-L1-hFc
measured_quantity: EC50 (µg/mL)
Answer with a number only, understood to be in µg/mL.

Name the recorded EC50 of the binder listed here: m8C6 (antibody, V domains shown, Murine hybridoma IgG (printed 'mIgG'); also called 8C6-mIgG; 8C6 murine) VH: QVQLKQSGPGLVQPSQSLSITCTVSGFSLTSYGVHWVRQSPGKGLEWLGVIWSGGVTDYNAAFISRLSISKDNSKSQVFFKMNSLQANDTAIYYCARLGFYAMDYWGQGTSVTVSS VL: SIVMTQTPKFLLVSAGDRVTITCKASQSVSNDVGWYQQKPGQSPKLLIYYASNRYSGVPDRFTGSGYGTDFTFTISTVQAEDLAVYFCQQDYTSPYTFGGGTKLEIK
0.0182
